Can you tell me pIC50 for the items I'm about to list?
// field semantics: pIC50 = negative decimal log of concentration (mol/L)

Any idea what pIC50 came out for "O=C(/C=C/c1ccc(O)c(O)c1)O[C@@H]1[C@H](O)C[C@@](O)(C(=O)O)C[C@H]1OC(=O)/C=C/c1ccc(O)c(O)c1" on α-amylase from Aspergillus oryzae (Aspergillus oryzae, UniProt P0C1B3)?
4.37

Any idea what pIC50 came out for O=C(/C=C/c1ccc(O)c(O)c1)OC1CC(OC(=O)/C=C/c2ccc(O)c(O)c2)(C(=O)O)CC(O)C1O (stereo not drawn) on α-amylase from Aspergillus oryzae (Aspergillus oryzae, UniProt P0C1B3)?
4.00

Any idea what pIC50 came out for O=C(/C=C/c1ccc(O)c(O)c1)OC1(C(=O)O)C[C@@H](O)C(O)[C@H](O)C1 (stereo partly drawn) on α-amylase from Aspergillus oryzae (Aspergillus oryzae, UniProt P0C1B3)?
3.76

Any idea what pIC50 came out for O=C(/C=C/c1ccc(O)c(O)c1)OC1CC(O)(C(=O)O)CC(OC(=O)/C=C/c2ccc(O)c(O)c2)C1O (stereo not drawn) on α-amylase from Aspergillus oryzae (Aspergillus oryzae, UniProt P0C1B3)?
4.29

Any idea what pIC50 came out for O=C(/C=C/c1ccc(O)c(O)c1)OC1CC(O)(C(=O)O)CC(O)C1OC(=O)/C=C/c1ccc(O)c(O)c1 (stereo not drawn) on α-amylase from Aspergillus oryzae (Aspergillus oryzae, UniProt P0C1B3)?
4.17

Any idea what pIC50 came out for O=C(C=Cc1ccc(O)c(O)c1)OC1CC(OC(=O)C=Cc2ccc(O)c(O)c2)(C(=O)O)CC(O)C1O (stereo not drawn) on α-amylase from Aspergillus oryzae (Aspergillus oryzae, UniProt P0C1B3)?
4.11

Any idea what pIC50 came out for "O=C(/C=C/c1ccc(O)c(O)c1)O[C@@H]1C[C@](O)(C(=O)O)C[C@@H](O)[C@H]1O" on α-amylase from Aspergillus oryzae (Aspergillus oryzae, UniProt P0C1B3)?
3.77

Any idea what pIC50 came out for "O=C(/C=C/c1ccc(O)c(O)c1)O[C@H]1[C@H](O)C[C@](O)(C(=O)O)C[C@H]1O" on α-amylase from Aspergillus oryzae (Aspergillus oryzae, UniProt P0C1B3)?
3.96

Any idea what pIC50 came out for O=C(/C=C/c1ccc(O)c(O)c1)OC1[C@H](OC(=O)/C=C/c2ccc(O)c(O)c2)CC(O)(C(=O)O)C[C@H]1OC(=O)/C=C/c1ccc(O)c(O)c1 (stereo partly drawn) on α-amylase from Aspergillus oryzae (Aspergillus oryzae, UniProt P0C1B3)?
4.39

Measured values drawn from paper PMC6052120 for this set.
